target: CDK5/p35 (Homo sapiens, UniProt Q00535); construct: purchased ProQinase GmbH; experiment: CDK5/p35 kinase inhibition (33P-ATP, histone H1); format: biochemical; settings: 0.15 μM ATP
Sequence (Q00535 whole entry): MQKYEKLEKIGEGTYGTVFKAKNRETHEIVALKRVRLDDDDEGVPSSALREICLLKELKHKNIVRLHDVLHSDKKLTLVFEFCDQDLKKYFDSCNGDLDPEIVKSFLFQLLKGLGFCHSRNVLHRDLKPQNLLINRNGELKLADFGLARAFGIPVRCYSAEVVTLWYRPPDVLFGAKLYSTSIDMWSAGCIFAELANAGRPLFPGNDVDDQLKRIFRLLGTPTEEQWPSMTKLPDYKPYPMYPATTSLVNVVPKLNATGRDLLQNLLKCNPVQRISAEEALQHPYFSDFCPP
Sequence (Q15078 whole entry partner): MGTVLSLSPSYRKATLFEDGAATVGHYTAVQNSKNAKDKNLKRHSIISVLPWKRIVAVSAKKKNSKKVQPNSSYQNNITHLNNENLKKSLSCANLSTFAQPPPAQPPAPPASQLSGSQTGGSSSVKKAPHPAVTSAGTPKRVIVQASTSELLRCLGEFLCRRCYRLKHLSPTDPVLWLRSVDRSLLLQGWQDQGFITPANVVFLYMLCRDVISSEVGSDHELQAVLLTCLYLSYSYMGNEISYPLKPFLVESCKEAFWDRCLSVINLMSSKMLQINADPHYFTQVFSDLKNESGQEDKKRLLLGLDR
reported.metric: IC50 (µM)
Respond numerically; units are µM and should not be typed.

Q) Look up IC50: CC(C)c1n[nH]c2c(NCc3ccc(-c4ccccn4)cc3)nc(NCCN)nc12 [Compound 40]
A) 0.038

Q) Look up IC50: CC(C)c1[nH]nc2c(NCc3ccc(-c4ccccn4)cc3)nc(N3CCSCC3)nc12 [Compound 15]
A) 0.114

Q) Look up IC50: CC(C)c1n[nH]c2c(NCc3ccc(-c4ccccn4)cc3)nc(S(C)(=O)=O)nc12 [Compound 7]
A) 0.165

Q) Look up IC50: CC(C)c1[nH]nc2c(NCc3ccc(-c4ccccn4)cc3)nc(N[C@H]3CC[C@H](N)CC3)nc12 [Compound 67]
A) 0.179

----------
system: CEM (human lymphoblastoid leukaemia); assay: MTT cytotoxicity assay, leukemic cell line CEM; assay type: cell-based; conditions: Homo sapiens, 72 h, three days
In plain terms, low IC50, meaning strictly below 0.07 µM, gives true, and everything else gives false.

Q) IC50 under 0.07 µM? Item: COc1ccc(CNc2nc(NCc3ccc(-c4ccccn4)cc3)c3n[nH]c(C(C)C)c3n2)cc1
A) false

Q) IC50 under 0.07 µM? Item: CC(C)c1n[nH]c2c(NCc3ccc(-c4ccccn4)cc3)nc(N[C@@H]3CCCC[C@H]3N)nc12 (relative stereo)
A) true

Q) IC50 under 0.07 µM? Item: CC(C)c1n[nH]c2c(NCc3ccc(-c4ccccn4)cc3)ncnc12
A) false

Q) IC50 under 0.07 µM? Item: CC(C)c1[nH]nc2c(NCc3ccc(-c4ccccn4)cc3)nc(NCC(C)(C)O)nc12
A) true

Q) IC50 under 0.07 µM? Item: CC(C)c1[nH]nc2c(NCc3ccc(-c4ccccn4)cc3)nc(NCCN3CCC3)nc12
A) false

Q) IC50 under 0.07 µM? Item: CC(C)c1[nH]nc2c(NCc3ccc(-c4ccccn4)cc3)nc(NC3CCCCC3N)nc12 (centres unmarked)
A) false

Q) IC50 under 0.07 µM? Item: CSc1nc(NCc2ccc(-c3ccccn3)cc2)c2[nH]nc(C(C)C)c2n1
A) false

Q) IC50 under 0.07 µM? Item: CC(C)c1[nH]nc2c(NCc3ccc(-c4ccccn4)cc3)nc(N3CCN(CCO)CC3)nc12
A) false

Q) IC50 under 0.07 µM? Item: CC(C)c1[nH]nc2c(NCc3ccc(-c4ccccn4)cc3)nc(N3CCSCC3)nc12
A) false

Q) IC50 under 0.07 µM? Item: CC(C)c1n[nH]c2c(NCc3ccc(-c4ccccn4)cc3)nc(NCC(O)CO)nc12 (centres unmarked)
A) false

Q) IC50 under 0.07 µM? Item: CC(C)c1[nH]nc2c(NCc3ccc(-c4ccccn4)cc3)nc(NCC(O)CN)nc12 (centres unmarked)
A) false

Q) IC50 under 0.07 µM? Item: CC(C)c1[nH]nc2c(NCc3ccc(-c4ccccn4)cc3)nc(N[C@H]3CC[C@H](N)CC3)nc12
A) false

Q) IC50 under 0.07 µM? Item: CC[C@H](CO)Nc1nc(NCc2ccc(-c3ccccn3)cc2)c2n[nH]c(C(C)C)c2n1
A) true

Q) IC50 under 0.07 µM? Item: CC(C)c1[nH]nc2c(NCc3ccc(-c4ccccn4)cc3)nc(N3CCNCC3)nc12
A) true

Q) IC50 under 0.07 µM? Item: CC(C)c1n[nH]c2c(NCc3ccc(-c4ccccn4)cc3)nc(NCCN)nc12
A) false

Q) IC50 under 0.07 µM? Item: CC(C)c1n[nH]c2c(NCc3ccc(-c4ccccn4)cc3)nc(S(C)(=O)=O)nc12
A) false

Q) IC50 under 0.07 µM? Item: CC(C)c1[nH]nc2c(NCc3ccc(-c4ccccn4)cc3)nc(NCCCO)nc12
A) false

Q) IC50 under 0.07 µM? Item: CC(C)c1[nH]nc2c(NCc3ccc(-c4ccccn4)cc3)nc(NC[C@@H](C)O)nc12
A) true
